meta.source: patent US20250326753A1

Kindly state pIC50 for each of the entries shown.
biological target: BTK (Bruton tyrosine kinase) (Homo sapiens); construct: GST or His (the text leaves open which); purchased Reaction Biology Europe GmbH Lot 012,11; host or cells: Sf9 insect cells or E. coli (not resolved); assay: BTK screening assay (33PanQinase Activity Assay, radiometric); assay type: biochemical; settings: Inhibition of BTK, radiometric 33PanQinase Activity Assay, 3 μM ATP, 10 concentrations in singlicate, top 10 μM; read-out: 33PanQinase ® Radiometric IC50
pIC50: −log10 of the molar value.

pIC50 reading for Cc1cc(-c2ncnc3[nH]c(C(=O)NCCN4[C@@H](c5ncccc5C)CCC[C@H]4c4ncccc4C)cc23)ccc1CNC(=O)c1cc(F)cc(F)c1 : 6.00 to 7.00

// Cc1cccnc1[C@H]1CCC[C@@H](c2ncccc2C)N1CCN1CCN(C(=O)c2ccc(-c3cc4c(-c5cccc(NC(=O)c6ccccc6)c5C)ncnc4[nH]3)cc2)CC1 : pIC50 value = 7.00 to 9.00

Sample Cc1cc(-c2ncnc3[nH]c(C(=O)NCCCN4[C@@H](c5ncccc5C)CCC[C@H]4c4ncccc4C)cc23)ccc1CNC(=O)c1ccc(C(F)(F)F)cc1 ; pIC50 observed: 7.00 to 9.00

###

Target: BTK (Bruton tyrosine kinase) (Homo sapiens, UniProt Q06187)
Construct: GST or His (the text leaves open which); purchased Reaction Biology Europe GmbH Lot 012,11; host or cells: Sf9 insect cells or E. coli (not resolved)
Sequence (Q06187 whole entry): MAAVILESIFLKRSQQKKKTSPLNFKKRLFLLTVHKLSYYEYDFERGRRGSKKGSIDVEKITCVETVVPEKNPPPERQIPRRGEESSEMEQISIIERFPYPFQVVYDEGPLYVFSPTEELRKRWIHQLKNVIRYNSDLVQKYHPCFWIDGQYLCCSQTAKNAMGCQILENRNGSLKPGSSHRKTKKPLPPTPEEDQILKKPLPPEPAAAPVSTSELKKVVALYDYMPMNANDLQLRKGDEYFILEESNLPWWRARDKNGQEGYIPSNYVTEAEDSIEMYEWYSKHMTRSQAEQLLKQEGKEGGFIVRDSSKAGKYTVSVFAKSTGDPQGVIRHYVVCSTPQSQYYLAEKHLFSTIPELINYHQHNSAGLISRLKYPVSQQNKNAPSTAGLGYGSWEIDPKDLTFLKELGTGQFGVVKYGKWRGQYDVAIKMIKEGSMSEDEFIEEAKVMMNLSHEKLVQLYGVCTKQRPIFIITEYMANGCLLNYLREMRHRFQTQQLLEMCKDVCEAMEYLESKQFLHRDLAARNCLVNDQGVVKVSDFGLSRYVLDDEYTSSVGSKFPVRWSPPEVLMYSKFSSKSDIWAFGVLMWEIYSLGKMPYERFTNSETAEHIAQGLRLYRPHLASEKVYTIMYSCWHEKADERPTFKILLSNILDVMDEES
Test: BTK screening assay (33PanQinase Activity Assay, radiometric)
Format: biochemical
Conditions: Inhibition of BTK, radiometric 33PanQinase Activity Assay, 3 μM ATP, 10 concentrations in singlicate, top 10 μM; read-out: 33PanQinase ® Radiometric IC50
Experimental: Inhibition of BTK activity was evaluated using a radiometric protein kinase assay (33PanQinase® Activity Assay) to measure the activity of BTK (Bruton tyrosine kinase). Kinase assays were performed in 96-well ScintiPlates™ from Perkin Elmer (Boston, MA, USA) in a 50 μL reaction volume. […] The reaction cocktails were incubated at 30° C. for 60 minutes. […] Incorporation of ^33Pi (counting of “cpm”) was determined with a microplate scintillation counter (Microbeta, Wallac). […]
pIC50: −log10 of the molar value.
Could you please report measured pIC50 for the items listed next?

Value (pIC50, BTK (Bruton tyrosine kinase) (Homo sapiens, UniProt Q06187)) for record Cc1cc(-c2ccnc(Nc3cnn(CCN4[C@@H](c5ncccc5C)CCC[C@H]4c4ncccc4C)c3)n2)ccc1CNC(=O)N1CC(OC(C)C)C1 [Compound I-11] = 7.00 to 9.00

Tested on BTK (Bruton tyrosine kinase) (Homo sapiens, UniProt Q06187), the item Cc1cc(-c2ccnc(Nc3cnn(CCCN4[C@@H](c5ncccc5C)CCC[C@H]4c4ncccc4C)c3)n2)ccc1CNC(=O)N1CC(OC(C)(C)C)C1 [Compound I-56] showed pIC50 equal to 7.00 to 9.00

So the reported pIC50 for Cc1cccnc1[C@H]1CCC[C@@H](c2ncccc2C)N1CCCCNC(=O)c1cc2c(-c3cccc(NC(=O)c4ccc(F)cc4)c3C)ncnc2[nH]1 [Compound I-89] , on BTK (Bruton tyrosine kinase) (Homo sapiens, UniProt Q06187), turned out to be < 5.60

The reported BTK (Bruton tyrosine kinase) (Homo sapiens, UniProt Q06187) pIC50 of COC1CN(C(=O)NCc2ccc(-c3ccnc(Nc4cnn(CCCN5[C@@H](c6ncccc6C)CCC[C@H]5c5ncccc5C)c4)n3)cc2C)C1 [Compound I-54] is 7.00 to 9.00

Recorded pIC50 for Cc1cccnc1[C@H]1CCC[C@@H](c2ncccc2C)N1CCCn1cc(-c2ccc(Oc3ccccc3)cc2)c2c(N)ncnc21 [Compound I-64] on BTK (Bruton tyrosine kinase) (Homo sapiens, UniProt Q06187) was < 5.60

Lab entry: BTK (Bruton tyrosine kinase) (Homo sapiens, UniProt Q06187) assay, compound Cc1cccnc1[C@H]1CCC[C@@H](c2ncccc2C)N1CCCNC(=O)c1cc2c(-c3cccc(NC(=O)c4ccc(F)cc4)c3C)ncnc2[nH]1 [Compound I-88] , pIC50 = < 5.60

Bench note, BTK (Bruton tyrosine kinase) (Homo sapiens, UniProt Q06187): entry Cc1cccnc1[C@H]1CCC[C@@H](c2ncccc2C)N1CCCCNC(=O)c1cc2c(-c3ccc(CNC(=O)c4ccc(C(C)(C)C)cc4)cc3)ncnc2[nH]1 [Compound I-1] , its pIC50 = 6.00 to 7.00

Value sought: pIC50, system BTK (Bruton tyrosine kinase) (Homo sapiens, UniProt Q06187), item Cc1cccnc1[C@H]1CCC[C@@H](c2ncccc2C)N1CCNC1CN(C(=O)c2ccc(-c3cc4c(-c5cccc(NC(=O)c6ccc(C(C)C)cc6)c5C)ncnc4[nH]3)cc2)C1 [Compound I-35] . Result: 7.00 to 9.00

Entry Cc1cccnc1[C@H]1CCC[C@@H](c2ncccc2C)N1CCN1CCN(C(=O)c2ccc(-c3cc4c(-c5cccc(NC(=O)c6ccc(C(F)(F)F)cc6)c5C)ncnc4[nH]3)cc2)CC1 [Compound I-34] , tested on BTK (Bruton tyrosine kinase) (Homo sapiens, UniProt Q06187), has a reported pIC50 of 6.00 to 7.00

Bench note, BTK (Bruton tyrosine kinase) (Homo sapiens, UniProt Q06187): entry CCOC1CN(C(=O)NCc2ccc(-c3ccnc(Nc4cnn(CCCN5[C@@H](c6ncccc6C)CCC[C@H]5c5ncccc5C)c4)n3)cc2C)C1 [Compound I-55] , its pIC50 = 7.00 to 9.00

Query Cc1cccnc1[C@H]1CCC[C@@H](c2ncccc2C)N1CCCNC(=O)c1cc2c(-c3cccc(NC(=O)c4ccccc4)c3C)ncnc2[nH]1 [Compound I-75] on BTK (Bruton tyrosine kinase) (Homo sapiens, UniProt Q06187); pIC50 returned: < 5.60

Field pIC50 (system: BTK (Bruton tyrosine kinase) (Homo sapiens, UniProt Q06187)) for entry CCc1ccc(C(=O)NCc2ccc(-c3ncnc4[nH]c(C(=O)NCCCN5[C@@H](c6ncccc6C)CCC[C@H]5c5ncccc5C)cc34)cc2C)cc1 [Compound I-51] = 7.00 to 9.00

Simply: Cc1cccnc1[C@H]1CCC[C@@H](c2ncccc2C)N1CCCCNC1CN(C(=O)c2cc3c(-c4cccc(NC(=O)c5ccccc5)c4C)ncnc3[nH]2)C1 [Compound I-79] , BTK (Bruton tyrosine kinase) (Homo sapiens, UniProt Q06187), pIC50 = < 5.60

Form: item Cc1cccnc1[C@H]1CCC[C@@H](c2ncccc2C)N1CCNC1CN(C(=O)c2ccc(-c3cc4c(-c5cccc(NC(=O)c6cccc(C(C)C)c6)c5C)ncnc4[nH]3)cc2)C1 [Compound I-36] ; test system BTK (Bruton tyrosine kinase) (Homo sapiens, UniProt Q06187); pIC50: 5.60 to 6.00

GET /values?item= Cc1cc(-c2ncnc3[nH]c(C(=O)NCCCN4[C@@H](c5ncccc5C)CCC[C@H]4c4ncccc4C)cc23)ccc1CNC(=O)c1ccc(C(C)C)cc1 [Compound I-38] &system= BTK (Bruton tyrosine kinase) (Homo sapiens, UniProt Q06187) returns pIC50: 7.00 to 9.00

Reported pIC50 (BTK (Bruton tyrosine kinase) (Homo sapiens, UniProt Q06187)) for entry Cc1cc(-c2ccnc(Nc3cnn(CCN4[C@@H](c5ncccc5C)CCC[C@H]4c4ncccc4C)c3)n2)ccc1CNC(=O)N1CC(OC(C)(C)C)C1 [Compound I-42] is 7.00 to 9.00

Entry Cc1cc(-c2ncnc3[nH]c(C(=O)NCCCCN4[C@@H](c5ncccc5C)CCC[C@H]4c4ncccc4C)cc23)ccc1CNC(=O)c1cccc(C(C)C)c1 [Compound I-45] ; assay system BTK (Bruton tyrosine kinase) (Homo sapiens, UniProt Q06187); pIC50 recorded at 7.00 to 9.00
